Assay: The drug is tested on Blautia hansenii strain: DSM20583 for biotransformation. The drug concentrations were measured before and after a 12-h incubation by liquid-chromatography-coupled mass spectrometry (LC–MS)
Settings: 2 µM
readoutLabel: Bacterial Biotransformation

COC(=O)[C@H]1[C@H]2C[C@@H]3c4[nH]c5cc(OC)ccc5c4CCN3C[C@H]2C[C@@H](OC(=O)c2cc(OC)c(OC)c(OC)c2)[C@@H]1OC = Compound NOT metabolized
O=P(O)(O)O.c1ccc(CN(CC2=NCCN2)c2ccccc2)cc1 [ANTAZOLINE PHOSPHATE] = Compound NOT metabolized
O=c1[nH]c2ccccc2n1CCCN1CCC(n2c(=O)[nH]c3cc(Cl)ccc32)CC1 = Compound NOT metabolized

----------
Molecular target: Nitroreductase-like protein (Bacteroides thetaiotaomicron)
Sequence (Q8AB93 whole entry): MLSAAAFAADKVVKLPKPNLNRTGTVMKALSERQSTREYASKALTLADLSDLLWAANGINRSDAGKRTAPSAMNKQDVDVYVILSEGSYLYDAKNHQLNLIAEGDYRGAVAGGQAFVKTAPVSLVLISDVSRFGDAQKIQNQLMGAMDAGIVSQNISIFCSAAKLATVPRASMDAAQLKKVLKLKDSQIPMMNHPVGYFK
Assay: The drug is tested on Bacteroides thetaiotaomicron strain: VPI-5482 for biotransformation. The drug concentrations were measured before and after a 12-h incubation by liquid-chromatography-coupled mass spectrometry (LC–MS)
Type: ADME
Design: dose 2 uM
Conditions: 2 µM
readoutLabel: Bacterial Biotransformation

// known answers, use as guide
CCOC(=O)C1=C(C)NC(C)=C(C(=O)OC)C1c1cccc([N+](=O)[O-])c1 (stereo not given) [NITRENDIPINE] = Compound metabolized
C#C[C@]1(OC(C)=O)CC[C@H]2[C@@H]3CCC4=CC(=O)CC[C@@H]4[C@H]3CC[C@@]21C [NORETHINDRONE ACETATE] = Compound NOT metabolized
CC(=O)SCC(Cc1ccccc1)C(=O)NCC(=O)OCc1ccccc1 (stereo not given) [RACECADOTRIL] = Compound NOT metabolized
CC(=O)Nc1ccc(OC(C)=O)cc1 [DIACETAMATE] = Compound NOT metabolized
CC(=O)OCC(CCn1cnc2cnc(N)nc21)COC(C)=O [FAMCICLOVIR] = Compound NOT metabolized
CC(=O)OCC(=O)[C@@]12N=C(C)O[C@@H]1C[C@H]1[C@@H]3CCC4=CC(=O)C=C[C@]4(C)[C@H]3[C@@H](O)C[C@@]12C [DEFLAZACORT] = Compound NOT metabolized

So what's the measured Bacterial Biotransformation for this one? CCN(CC)C(=O)/C(C#N)=C/c1cc(O)c(O)c([N+](=O)[O-])c1 [ENTACAPONE]
Compound metabolized

So what's the measured Bacterial Biotransformation for this one? COc1ccnc(C[S+]([O-])c2nc3ccc(OC(F)F)cc3[nH]2)c1OC (stereo not given) [PANTOPRAZOLE]
Compound NOT metabolized

So what's the measured Bacterial Biotransformation for this one? N#Cc1ccc2c(c1)N(CCCN1CCC(O)CC1)c1ccccc1S2 [PERICIAZINE]
Compound NOT metabolized

So what's the measured Bacterial Biotransformation for this one? O=C(O)c1cc(/N=N/c2ccc(S(=O)(=O)Nc3ccccn3)cc2)ccc1O [SULFASALAZINE]
Compound metabolized

So what's the measured Bacterial Biotransformation for this one? Nc1ccc(/N=N/c2ccccc2)c(N)n1 [PHENAZOPYRIDINE]
Compound NOT metabolized

So what's the measured Bacterial Biotransformation for this one? C[C@@H]1CC[C@H]2[C@@H](C)C(=O)O[C@@H]3O[C@@]4(C)CC[C@@H]1[C@]32OO4 [ARTEMISININ]
Compound NOT metabolized

So what's the measured Bacterial Biotransformation for this one? COc1ccc([C@@H]2Sc3ccccc3N(CCN(C)C)C(=O)[C@@H]2OC(C)=O)cc1 [DILTIAZEM]
Compound NOT metabolized

So what's the measured Bacterial Biotransformation for this one? CC(=O)OCC(=O)NCCCOc1cccc(CN2CCCCC2)c1 [ROXATIDINE ACETATE]
Compound NOT metabolized

So what's the measured Bacterial Biotransformation for this one? CC(=O)OCC(=O)[C@@]1(OC(C)=O)[C@@H](C)C[C@H]2[C@@H]3C[C@H](F)C4=CC(=O)C=C[C@]4(C)[C@@]3(F)[C@@H](O)C[C@@]21C [DIFLORASONE DIACETATE]
Compound NOT metabolized

So what's the measured Bacterial Biotransformation for this one? C#C[C@]1(O)CC[C@H]2[C@@H]3CCC4=Cc5oncc5C[C@]4(C)[C@H]3CC[C@@]21C [DANAZOL]
Compound NOT metabolized

So what's the measured Bacterial Biotransformation for this one? C[C@]12CCC(=O)C=C1[C@@H]1C[C@@H]1[C@H]1[C@@H]3[C@@H]4C[C@@H]4[C@@]4(CCC(=O)O4)[C@@]3(C)CC[C@@H]12 [DROSPIRENONE]
Compound NOT metabolized

So what's the measured Bacterial Biotransformation for this one? CC(=O)Oc1ccc(C(c2ccc(OC(C)=O)cc2)c2ccccn2)cc1 [BISACODYL]
Compound NOT metabolized

So what's the measured Bacterial Biotransformation for this one? C#C[C@]1(O)CC[C@H]2[C@@H]3CCC4=CC(=O)CC[C@@H]4[C@H]3CC[C@@]21CC [LEVONORGESTREL]
Compound NOT metabolized

So what's the measured Bacterial Biotransformation for this one? CCS(=O)(=O)CCn1c([N+](=O)[O-])cnc1C [TINIDAZOLE]
Compound metabolized

----------
Settings: anaerostipes sp., 12 h, 2 µM
Description: The drug is tested on Anaerostipes sp. strain: fecal isolate for biotransformation. The drug concentrations were measured before and after a 12-h incubation by liquid-chromatography-coupled mass spectrometry (LC–MS)
readoutLabel: Bacterial Biotransformation

OC(c1cc(C(F)(F)F)nc2c(C(F)(F)F)cccc12)C1CCCCN1 (centres undefined) [MEFLOQUINE] = Compound NOT metabolized
CC(C)N(CCC(C(N)=O)(c1ccccc1)c1ccccn1)C(C)C.O=P(O)(O)O (centres undefined) [DISOPYRAMIDE PHOSPHATE] = Compound NOT metabolized
Cc1ccc(-c2cc(C(F)(F)F)nn2-c2ccc(S(N)(=O)=O)cc2)cc1 [CELECOXIB] = Compound NOT metabolized

----------
Details: bacteroides fragilis, 12 h, 2 µM
Description: The drug is tested on Bacteroides fragilis strain: DS-208 for biotransformation. The drug concentrations were measured before and after a 12-h incubation by liquid-chromatography-coupled mass spectrometry (LC–MS)
readoutLabel: Bacterial Biotransformation

CCOC(=O)[C@H](CCc1ccccc1)N[C@@H](C)C(=O)N1Cc2ccccc2C[C@H]1C(=O)O = Compound metabolized
CN1CCOC(c2ccccc2)c2ccccc2C1 (stereo not given) = Compound NOT metabolized
O=c1n(CCCN2CCN(c3cccc(Cl)c3)CC2)nc2ccccn12 = Compound NOT metabolized
CN(C)C(=O)Oc1cc(OC(=O)N(C)C)cc(C(O)CNC(C)(C)C)c1 (stereo not given) = Compound NOT metabolized

Pending compound:
So what's the measured Bacterial Biotransformation for this one? "Cc1nc2n(c(=O)c1CCN1CCC(c3noc4cc(F)ccc34)CC1)CCCC2"
Compound metabolized

----------
Experiment: The drug is tested on Bacteroides fragilis strain: ATCC43859 for biotransformation. The drug concentrations were measured before and after a 12-h incubation by liquid-chromatography-coupled mass spectrometry (LC–MS)
Details: 2 µM
readoutLabel: Bacterial Biotransformation

Nc1nc(N)nc(-c2cc(Cl)ccc2Cl)n1.O=C(O)/C=C\C(=O)O [IRSOGLADINE MALEATE] = Compound NOT metabolized
COC(=O)C1=C(C)NC(C)=C(C(=O)OC(C)C)C1c1cccc2nonc12 (centres undefined) = Compound NOT metabolized
Br.CN1CCC[C@@H]1Cc1c[nH]c2ccc(CCS(=O)(=O)c3ccccc3)cc12 [ELETRIPTAN HYDROBROMIDE] = Compound NOT metabolized

----------
Target: Acetyl esterase (Acetylxylosidase) (Bacteroides thetaiotaomicron, UniProt Q8ABF8)
Sequence (Q8ABF8 whole entry, change not shown): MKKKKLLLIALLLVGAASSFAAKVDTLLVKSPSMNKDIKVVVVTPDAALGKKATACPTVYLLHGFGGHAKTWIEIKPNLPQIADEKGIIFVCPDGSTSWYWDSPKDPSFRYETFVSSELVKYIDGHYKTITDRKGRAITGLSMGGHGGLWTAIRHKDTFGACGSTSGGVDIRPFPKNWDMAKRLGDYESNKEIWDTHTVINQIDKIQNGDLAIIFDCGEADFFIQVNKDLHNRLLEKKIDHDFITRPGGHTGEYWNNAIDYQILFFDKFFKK
Assay: The drug is tested on Bacteroides thetaiotaomicron strain: VPI-5482 for biotransformation. The drug concentrations were measured before and after a 12-h incubation by liquid-chromatography-coupled mass spectrometry (LC–MS)
Type: ADME
Parameters: dose 2 uM
Settings: 2 µM
readoutLabel: Bacterial Biotransformation

// known answers, use as guide
CC(=O)OCC(=O)NCCCOc1cccc(CN2CCCCC2)c1 [ROXATIDINE ACETATE] = Compound metabolized
C#C[C@]1(O)CC[C@H]2[C@@H]3CCC4=CC(=O)CC[C@@H]4[C@H]3CC[C@@]21CC = Compound NOT metabolized
CC(=O)OCC(CCn1cnc2cnc(N)nc21)COC(C)=O = Compound metabolized
CC(=O)SCC(Cc1ccccc1)C(=O)NCC(=O)OCc1ccccc1 (centres undefined) = Compound metabolized
Nc1ccc(/N=N/c2ccccc2)c(N)n1 = Compound NOT metabolized

So what's the measured Bacterial Biotransformation for this one? "COc1ccc([C@@H]2Sc3ccccc3N(CCN(C)C)C(=O)[C@@H]2OC(C)=O)cc1"
Compound NOT metabolized

So what's the measured Bacterial Biotransformation for this one? "CCN(CC)C(=O)/C(C#N)=C/c1cc(O)c(O)c([N+](=O)[O-])c1"
Compound NOT metabolized

So what's the measured Bacterial Biotransformation for this one? CCOC(=O)C1=C(C)NC(C)=C(C(=O)OC)C1c1cccc([N+](=O)[O-])c1 (centres undefined)
Compound NOT metabolized

So what's the measured Bacterial Biotransformation for this one? CC(=O)Nc1ccc(OC(C)=O)cc1 [DIACETAMATE]
Compound metabolized

Cited source for all entries: ChEMBL document CHEMBL5303573
